The following molecules have recorded pIC50 on Sodium-dependent noradrenaline transporter (Homo sapiens, UniProt P23975).
Sequence (P23975 whole entry): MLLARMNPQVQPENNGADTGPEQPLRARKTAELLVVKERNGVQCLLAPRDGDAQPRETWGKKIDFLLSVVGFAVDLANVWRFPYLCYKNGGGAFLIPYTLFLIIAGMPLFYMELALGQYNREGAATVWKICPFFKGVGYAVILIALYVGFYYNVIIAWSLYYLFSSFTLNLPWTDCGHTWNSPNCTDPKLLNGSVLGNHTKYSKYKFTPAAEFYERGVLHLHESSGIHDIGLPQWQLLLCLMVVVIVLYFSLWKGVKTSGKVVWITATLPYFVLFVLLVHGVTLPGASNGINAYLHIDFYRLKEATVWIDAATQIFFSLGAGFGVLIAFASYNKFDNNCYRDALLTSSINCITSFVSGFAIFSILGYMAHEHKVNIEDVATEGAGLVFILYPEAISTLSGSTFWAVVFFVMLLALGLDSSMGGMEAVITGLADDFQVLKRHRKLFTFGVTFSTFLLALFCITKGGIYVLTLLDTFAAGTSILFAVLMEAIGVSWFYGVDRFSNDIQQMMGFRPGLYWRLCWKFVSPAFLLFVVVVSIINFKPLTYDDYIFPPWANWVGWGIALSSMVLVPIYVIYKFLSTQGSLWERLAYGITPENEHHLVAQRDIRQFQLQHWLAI
Friendly reminder that pIC50 comes from taking -log10 of the concentration in mol/L.

Solved entries:
{"molecule": "CC(C)N(c1ccncc1)n1ccc2ccccc21", "pIC50": 5.64}
{"molecule": "Cc1cc2ccccc2n1Nc1ccncc1", "pIC50": 5.44}
{"molecule": "O=[N+]([O-])c1ccc2c(ccn2Nc2ccncc2)c1", "pIC50": 5.00}
{"molecule": "CCCN(c1ccncc1)n1cc(C=O)c2ccccc21", "pIC50": 5.66}

Kindly state the measured pIC50 obtained for CCCN(c1ccncc1)n1c2ccccc2c2ccccc21.O=C(O)/C=C/C(=O)O with Sodium-dependent noradrenaline transporter (Homo sapiens, UniProt P23975). 5.62

----------
Listing of entries alongside the reported IC50.
# target-or-test-system: Sodium-dependent noradrenaline transporter (Homo sapiens)

{"molecule": "CN(c1ccncc1)n1ccc2cc([N+](=O)[O-])ccc21", "IC50": "> 30 µM"}

Kindly state the measured IC50 obtained for Brc1ccc2c(ccn2Nc2ccncc2)c1 with Sodium-dependent noradrenaline transporter (Homo sapiens). > 20 µM

Kindly state the measured IC50 obtained for c1ccc2c(c1)OCC(C1=NCCN1)O2 (centres undefined) with Sodium-dependent noradrenaline transporter (Homo sapiens). > 20 µM

Kindly state the measured IC50 obtained for Clc1cccc(Cl)c1NC1=NCCN1 with Sodium-dependent noradrenaline transporter (Homo sapiens). > 20 µM

----------
# target-or-test-system: Muscarinic acetylcholine receptor
# Format: cell membranes, Membrane
# Description: Inhibition of [3H]quinuclidinyl benzilate (QNB) binding from rat forebrain membranes in the presence of Zn
measurement-type: IC50 (µM)
Entry rule: numbers only, all in µM.

{"molecule": "O=C(O)/C=C/C(=O)O.c1ccc2c(c1)cnn2Nc1ccncc1", "target-or-test-system": "Muscarinic acetylcholine receptor", "measurement-type": "IC50", "reading-unit": "µM", "measured-result": 29}
{"molecule": "CCCN(c1ccncc1)n1cc(C(C)=O)c2ccccc21", "target-or-test-system": "Muscarinic acetylcholine receptor", "measurement-type": "IC50", "reading-unit": "µM", "measured-result": 2.7}
{"molecule": "CCCN(c1ccncc1)n1cc(C#N)c2ccccc21", "target-or-test-system": "Muscarinic acetylcholine receptor", "measurement-type": "IC50", "reading-unit": "µM", "measured-result": 3.5}
{"molecule": "C#CCN(c1ccncc1)n1ccc2ccccc21", "target-or-test-system": "Muscarinic acetylcholine receptor", "measurement-type": "IC50", "reading-unit": "µM", "measured-result": 2.5}
{"molecule": "CCN(c1ccncc1)n1ccc2ccccc21", "target-or-test-system": "Muscarinic acetylcholine receptor", "measurement-type": "IC50", "reading-unit": "µM", "measured-result": 2.4}

Look up IC50 for this molecule: CCCN(c1ccncc1)n1cc(CC)c2ccccc21 0.71

Look up IC50 for this molecule: CCCN(c1ccncc1)n1ccc2cc(Br)ccc21 1.6

----------
The following compounds have recorded log10(IC50) on UniProt P23975.
// stored as log10 of IC50 expressed in nM

Kindly state the measured log10(IC50) obtained for CCCN(c1ccncc1)n1cc(C)c2ccccc21 with UniProt P23975. 3.11

Kindly state the measured log10(IC50) obtained for CCCCN(c1ccncc1)n1ccc2ccccc21 with UniProt P23975. 2.63

Kindly state the measured log10(IC50) obtained for CCCN(c1ccncc1)n1ccc2cc(Cl)ccc21 with UniProt P23975. 3.28

Kindly state the measured log10(IC50) obtained for CCCN(c1ccncc1)n1c(C)cc2ccccc21 with UniProt P23975. 3.04

Kindly state the measured log10(IC50) obtained for CCCN(c1ccncc1)n1ccc2cc(OC)ccc21 with UniProt P23975. 2.76

Kindly state the measured log10(IC50) obtained for C=CCN(c1ccncc1)n1ccc2ccccc21 with UniProt P23975. 3.79

Kindly state the measured log10(IC50) obtained for CCCN(c1ccncn1)n1ccc2ccccc21 with UniProt P23975. 3.15

Kindly state the measured log10(IC50) obtained for CCCN(c1ccncc1)n1ncc2ccccc21.O=C(O)/C=C/C(=O)O with UniProt P23975. 3.15

Kindly state the measured log10(IC50) obtained for C#CCN(c1ccncc1)n1ccc2ccccc21 with UniProt P23975. 2.83

Kindly state the measured log10(IC50) obtained for O=C(O)/C=C/C(=O)O.c1ccc2c(c1)cnn2Nc1ccncc1 with UniProt P23975. 4.23
